- Test: in vitro
- Details: rat, IC50, concentration at which the growth of the cells is inhibited by 50% (cytotoxicity)

Compound: CC1(C)Oc2cc3oc(=O)ccc3cc2C[C@@H]1O [Decursinol, decursinol]
Readout Units: µM
Result Comparator: ≥
IC50: 500

Compound: CC(C)=CC(=O)O[C@H]1Cc2cc3ccc(=O)oc3cc2OC1(C)C [Decursin, decursin]
Readout Units: µM
Result Comparator: =
IC50: 82.7
